Exercise: for every item that follows, state its recorded CC50.
- Test system: MT-4 cells (mock-infected)
- METHOD: cytotoxicity in mock-infected MT-4 cells (MTT)
- Type: cell-based
- MEASUREMENT_CONTEXT: 50% cytotoxic concentration; reduces absorbance of mock-infected MT-4 control by 50%; MTT; read-out: CC50
Use µM as the unit, but write only the number.

Q. Any idea what CC50 was measured for `Cc1ccc(Nc2nc(N)cc(Cc3c(Cl)cccc3Cl)n2)cc1` ?
A. 42.3

Q. Given `N#Cc1ccc(Nc2cc(Cc3c(Cl)cccc3Cl)nc(NCCO)n2)cc1` , state its recorded CC50.
A. 40.2

Q. What value of CC50 has been recorded for this entry: `Nc1cc(Cc2c(Cl)cccc2Cl)nc(Nc2ccccc2)n1`
A. 33.4

Q. Need CC50, item `Nc1cc(Cc2c(Cl)cccc2Cl)nc(Nc2ccc(F)cc2)n1`
A. 43.4

Q. Which measured CC50 value corresponds to `CNc1nc(Cc2c(Cl)cccc2Cl)cc(Nc2ccc(C#N)cc2)n1` ?
A. 34.2

* * *

- METHOD: cytotoxicity in mock-infected MT-4 cells (MTT)
- Format: cell-based
- MEASUREMENT_CONTEXT: human, mock-infected MT-4 cells, 50% cytotoxic concentration; reduces absorbance of mock-infected MT-4 control by 50%; MTT
OUTCOME_MEASURE: CC50 (µM)
Give the number; µM is assumed, so skip it.

Q. // returns reported CC50 for input `Cc1cc(Br)c(Nc2ccnc(Nc3ccc(C#N)cc3)n2)c(Br)c1`
A. 0.1

Q. // CC50 lookup, key: `N#Cc1ccc(Nc2nc(Cc3c(Cl)cccc3Cl)cc(NCCN3CCCC3)n2)cc1`
A. 7.8

Q. What CC50 value was documented for this compound, `Cc1cc(C)c(Nc2ccnc(Nc3ccc(C(N)=O)cc3)n2)c(C)c1` ?
A. 0.8

Q. // returns reported CC50 for input `CCCCCCCC(=O)Nc1cc(Cc2c(Cl)cccc2Cl)nc(Nc2ccc(C#N)cc2)n1`
A. 9.1

Q. Requested field: CC50. Item: `N#Cc1ccc(Nc2nc(Cc3c(Cl)cccc3Cl)cc(NCCCO)n2)cc1`
A. 37.4

Q. Which CC50 is listed for `Cc1cc(C)c(Nc2ccnc(Nc3ccc(C#N)cc3)n2)c(C)c1` ?
A. 2.08

Q. Using the record for `Cc1cnc(Nc2ccc(C#N)cc2)nc1Nc1c(C)cc(C#N)cc1C` , report its CC50.
A. 0.4

Q. Which CC50 value belongs to `CN(C)C=Nc1cc(Cc2c(Cl)cccc2Cl)nc(Nc2ccc(C#N)cc2)n1` ?
A. 33.5

Q. Request the reported CC50 associated with `N#Cc1ccc(Nc2nccc(Nc3c(Cl)cc(C(F)(F)F)cc3Cl)n2)cc1`
A. 19.9

* * *

- Test system: MT-4 cells (mock-infected)
- METHOD: cytotoxicity in mock-infected MT-4 cells (MTT)
- Format: cell-based
- MEASUREMENT_CONTEXT: 50% cytotoxic concentration; reduces absorbance of mock-infected MT-4 control by 50%; MTT; read-out: CC50
OUTCOME_MEASURE: CC50 (µM)
Return type: number; implicit unit µM.

Q. Value lookup for CC50; key = Nc1nc(Cc2c(Cl)cccc2Cl)cc(Nc2ccccc2)n1 [Compound 38]
A. 32.4

Q. Dear colleague, I am looking for the recorded CC50 of the following compound: Cc1cc(C)c(Nc2ccnc(Nc3ccc(C#N)c(N)c3)n2)c(C)c1 [Compound 102]
A. 0.5

Q. If you can, please state the reported CC50 value of Nc1nc(Cc2c(Cl)cccc2Cl)cc(Nc2ccc(F)cc2)n1 [Compound 34] .
A. 57.8

Q. Which measured CC50 value corresponds to Cc1cc(C#N)cc(C)c1Nc1ccnc(Nc2ccc(C#N)cc2)n1 [Compound 69] ?
A. 4.7

Q. CC50 for Nc1nc(Cc2c(Cl)cccc2Cl)cc(Nc2ccc(Br)cn2)n1 [Compound 31] ?
A. 86.8

Q. I am curious: what CC50 value has been reported for Cc1cc(C)c(Nc2ccnc(Nc3ccc(C#N)cc3)n2)c(C)c1 [Compound 53] ?
A. 1.3

Q. # query: CC50 of entry Cc1c(N)nc(Nc2ccc(Br)cc2)nc1Cc1c(Cl)cccc1Cl [Compound 49]
A. 45.2

Q. I have this compound here, N#Cc1ccc(Nc2cc(Cc3c(Cl)cccc3Cl)nc(NCCCO)n2)cc1 [Compound 42] , and I need its recorded CC50.
A. 35.5

Q. What measured CC50 goes with N#Cc1ccc(Nc2cc(Cc3c(Cl)cccc3Cl)nc(N)n2)cc1 [Compound 45] ?
A. 56.3
